Just for reference, ChEMBL document CHEMBL1153723 is where these values come from.

Tested on: HT-29
Assay: Cytotoxicity against human HT-29 cells after 72 hrs by FMCA method relative to digoxin
Format: functional

INPUT SMILES | Activity
C[C@H]1O[C@@H](O[C@H]2[C@@H](O)C[C@H](O[C@H]3[C@@H](O)C[C@H](O[C@H]4CC[C@@]5(C)[C@H](CC[C@@H]6[C@@H]5CC[C@]5(C)[C@@H](C7=CC(=O)OC7)CC[C@]65O)C4)O[C@@H]3C)O[C@@H]2C)C[C@H](O)[C@@H]1O | 2.91
C[C@@H]1O[C@@H](O[C@H]2CC[C@]3(C=O)[C@H]4CC[C@]5(C)[C@@H](C6=CC(=O)OC6)CC[C@]5(O)[C@@H]4CC[C@]3(O)C2)[C@H](O)[C@H](O)[C@H]1O | 0.39
C[C@@H]1O[C@@H](O[C@@H]2C=C3CC[C@@H]4[C@H](CC[C@]5(C)[C@@H](c6ccc(=O)oc6)CC[C@]45O)[C@@]3(C)CC2)[C@H](O)[C@H](O)[C@H]1O | 0.39
CO[C@H]1C[C@H](O[C@H]2CC[C@@]3(C)[C@H](CC[C@@H]4[C@@H]3CC[C@]3(C)[C@@H](C5=CC(=O)OC5)[C@@H](OC(C)=O)C[C@]43O)C2)O[C@@H](C)[C@@H]1O | 0.31

###

Tested on: HCT-116
Experiment: Cytotoxicity against human HCT116 cells after 72 hrs by FMCA method relative to digoxin
Type: functional
Reported Activity values are given for each entry in this list.

INPUT SMILES | ASSAY TARGET | Activity
CO[C@H]1C[C@H](O[C@H]2CC[C@@]3(C)[C@H](CC[C@@H]4[C@@H]3CC[C@]3(C)[C@@H](C5=CC(=O)OC5)[C@@H](OC(C)=O)C[C@]43O)C2)O[C@@H](C)[C@@H]1O | HCT-116 | 0.3
C[C@@H]1O[C@@H](O[C@H]2CC[C@]3(C=O)[C@H]4CC[C@]5(C)[C@@H](C6=CC(=O)OC6)CC[C@]5(O)[C@@H]4CC[C@]3(O)C2)[C@H](O)[C@H](O)[C@H]1O | HCT-116 | 0.04
C[C@H]1O[C@@H](O[C@H]2[C@@H](O)C[C@H](O[C@H]3[C@@H](O)C[C@H](O[C@H]4CC[C@@]5(C)[C@H](CC[C@@H]6[C@@H]5C[C@@H](O)[C@]5(C)[C@@H](C7=CC(=O)OC7)CC[C@]65O)C4)O[C@@H]3C)O[C@@H]2C)C[C@H](O)[C@@H]1O | HCT-116 | 1
C[C@@H]1O[C@@H](O[C@@H]2C=C3CC[C@@H]4[C@H](CC[C@]5(C)[C@@H](c6ccc(=O)oc6)CC[C@]45O)[C@@]3(C)CC2)[C@H](O)[C@H](O)[C@H]1O | HCT-116 | 0.22
C[C@H]1O[C@@H](O[C@H]2[C@@H](O)C[C@H](O[C@H]3[C@@H](O)C[C@H](O[C@H]4CC[C@@]5(C)[C@H](CC[C@@H]6[C@@H]5CC[C@]5(C)[C@@H](C7=CC(=O)OC7)CC[C@]65O)C4)O[C@@H]3C)O[C@@H]2C)C[C@H](O)[C@@H]1O | HCT-116 | 2.74

###

Tested on: HT-29
Experiment: Cytotoxicity against human HT-29 cells assessed as survival index at 10 uM after 72 hrs by FMCA method
Format: functional
Settings: HT-29, 72 h, read-out: Survival

MOLECULE | viability at 10 µM (%)
CO[C@H]1C[C@H](O[C@H]2CC[C@@]3(C)[C@H](CC[C@@H]4[C@@H]3CC[C@]3(C)[C@@H](C5=CC(=O)OC5)[C@@H](OC(C)=O)C[C@]43O)C2)O[C@@H](C)[C@@H]1O [OLEANDRIN] | 20
C[C@]12CC[C@H]3[C@@H](CC[C@]4(O)C[C@@H](O)CC[C@]34C=O)[C@@]1(O)CC[C@@H]2C1=CC(=O)OC1 [STROPHANTHIDIN] | 58
C[C@]12CC[C@H](O)C[C@H]1CC[C@@H]1[C@@H]2CC[C@]2(C)[C@@H](C3=CC(=O)OC3)[C@@H](O)C[C@]12O [GITOXIGENIN] | 81
